// provenance: patent EP4763206A1

tested on: Neuro2a cells; experiment: Cell death suppression by D-cycloserine combined with edaravone in TDP-43-transfected Neuro2a cells (Example 1); assay type: cell-based; conditions: Mus musculus, N2a, read-out: EC50 of the cell death suppressory effect of D-cycloserine, at 1,000 nmol/L of edaravone
assayEndpoint: EC50 (nM)
// return numeric value only (unit: nM, not printed)

Q: What value of EC50 has been recorded for this entry: N[C@@H]1CONC1=O [D-cycloserine, (4R)-4-Amino-1,2-oxazolidin-3-one]
Ans: 87.6
